Test: Competitive binding affinity to human muscarinic acetylcholine receptor M2 expressed in […] cells assessed as W84 pIC50 at 2 nM after 2 hrs by liquid scintillation counting assay
pIC50: −log10 of the molar value.
measured.parameter: pIC50

> print(dat)
                                   compound  measured.parameter  reported.value
1  [3H]CC([3H])C(=O)NCCNC(=O)CCc1cn(CCCCC2CCN(CC(=O)N3c4ccccc4NC(=O)c4ccccc43)CC2)cn1 (stereo unspecified)               pIC50            6.74

----------
Assay: Competitive binding affinity to human muscarinic acetylcholine receptor M2 expressed in […] cells assessed as W84 pIC50 at 4 nM after 2 hrs by liquid scintillation counting assay
pIC50: −log10 of the molar value.
measured.parameter: pIC50

> print(dat)
                                   compound  measured.parameter  reported.value
1  [3H]CC([3H])C(=O)NCCNC(=O)CCc1cn(CCCCC2CCN(CC(=O)N3c4ccccc4NC(=O)c4ccccc43)CC2)cn1 (stereo unspecified)               pIC50            6.55
